Target: human P2X7 (Homo sapiens (Human))
Experiment: Radioligand binding ([3H]A-804598), human P2X7-1321N1 cell membranes
Conditions: human P2X7-1321N1 membranes, tritiated A-804598
MEASUREMENT_NAME: pKi
Please treat pKi as minus the base-10 logarithm of the molar concentration.

{"columns": ["MOLECULE", "OBS_VALUE"],
 "data": [
  ["C[C@H]1Cc2c(nnn2-c2ccn[nH]2)CN1C(=O)c1cccc(C(F)(F)F)c1F (single isomer, unassigned)", 8.10],
  ["Cc1cc(-n2nnc3c2CCN(C(=O)c2ccnc(C(F)(F)F)c2F)C3C)ncc1F (centres unmarked)", 6.94],
  ["Cc1c(C(=O)N2Cc3nnn(-c4cc[nH]n4)c3CC2C)cccc1C(F)(F)F (centres unmarked)", 8.10],
  ["CC1c2nnn(-c3ncc[nH]3)c2CCN1C(=O)c1cccc(C(F)(F)F)c1Cl (centres unmarked)", 7.05],
  ["CC1c2nnn(-c3cccc(C(F)(F)F)n3)c2CCN1C(=O)c1cccc(C(F)(F)F)c1Cl (centres unmarked)", 6.80]
]}

(Q) Give me measured pKi, please, for this molecule: Cc1cc(-n2nnc3c2CCN(C(=O)c2ccnc(C(F)(F)F)c2Cl)C3C)ncc1F (centres unmarked)
(A) 7.20

(Q) Give me measured pKi, please, for this molecule: Cc1ccnc(-n2nnc3c2CCN(C(=O)c2cccc(Cl)c2Cl)[C@H]3C)n1 (single isomer, unassigned)
(A) 8.40

(Q) Give me measured pKi, please, for this molecule: Cc1cc(-n2nnc3c2CCN(C(=O)c2ccnc(C(F)(F)F)c2Cl)[C@@H]3C)ncc1F (single isomer, unassigned)
(A) 7.75

---

Molecular target: rat P2X7 (Rattus norvegicus (Rat))
Sequence (Q64663 whole entry): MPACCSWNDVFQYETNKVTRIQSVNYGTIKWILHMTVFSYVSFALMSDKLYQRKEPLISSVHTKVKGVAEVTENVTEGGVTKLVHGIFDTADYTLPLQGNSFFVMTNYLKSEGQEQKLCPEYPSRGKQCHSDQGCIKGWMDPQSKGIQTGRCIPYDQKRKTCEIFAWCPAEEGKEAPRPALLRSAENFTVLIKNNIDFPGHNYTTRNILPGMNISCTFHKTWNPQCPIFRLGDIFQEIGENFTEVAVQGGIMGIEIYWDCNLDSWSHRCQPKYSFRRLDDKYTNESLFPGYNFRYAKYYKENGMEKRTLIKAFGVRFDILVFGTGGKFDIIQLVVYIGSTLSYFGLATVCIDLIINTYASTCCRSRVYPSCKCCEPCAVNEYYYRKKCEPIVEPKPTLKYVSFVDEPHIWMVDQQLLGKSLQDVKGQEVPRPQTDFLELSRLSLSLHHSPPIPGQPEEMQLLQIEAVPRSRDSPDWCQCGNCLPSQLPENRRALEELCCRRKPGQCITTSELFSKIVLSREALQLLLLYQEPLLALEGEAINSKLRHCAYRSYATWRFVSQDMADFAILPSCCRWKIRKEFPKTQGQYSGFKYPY
Experiment: Ca2+ flux (FLIPR) in 1321N1 cells expressing recombinant rat P2X7
Type: cell-based
Conditions: 250 μM BzATP; Calcium-4 dye
MEASUREMENT_NAME: pIC50
Please treat pIC50 as minus the base-10 logarithm of the molar concentration.

(Q) State recorded pIC50 with rat P2X7 (Rattus norvegicus (Rat)), entry Cc1nc(-n2nnc3c2CCN(C(=O)c2cccc(C(F)(F)F)c2Cl)C3C)ncc1F (single isomer, unassigned) , no comment.
(A) 5.22

---

Target: human P2X7 (Homo sapiens (Human), UniProt Q99572)
Sequence (Q99572 whole entry): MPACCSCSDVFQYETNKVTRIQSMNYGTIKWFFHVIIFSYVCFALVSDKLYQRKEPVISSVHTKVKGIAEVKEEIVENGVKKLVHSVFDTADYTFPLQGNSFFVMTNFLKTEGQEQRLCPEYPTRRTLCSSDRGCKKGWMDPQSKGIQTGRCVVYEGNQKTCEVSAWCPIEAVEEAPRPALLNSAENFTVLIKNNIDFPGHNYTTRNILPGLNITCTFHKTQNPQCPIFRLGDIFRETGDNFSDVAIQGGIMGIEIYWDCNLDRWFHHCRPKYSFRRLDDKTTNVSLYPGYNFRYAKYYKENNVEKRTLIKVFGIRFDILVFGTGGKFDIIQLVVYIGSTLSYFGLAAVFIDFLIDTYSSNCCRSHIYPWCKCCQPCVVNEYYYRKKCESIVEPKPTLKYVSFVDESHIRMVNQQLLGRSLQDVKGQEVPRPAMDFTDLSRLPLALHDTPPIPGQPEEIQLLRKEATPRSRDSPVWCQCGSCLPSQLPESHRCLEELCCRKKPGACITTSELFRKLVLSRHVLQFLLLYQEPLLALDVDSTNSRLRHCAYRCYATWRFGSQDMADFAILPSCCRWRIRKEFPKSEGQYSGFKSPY
Experiment: P2X7 antagonism in human PBMCs (IL-1β release after LPS + Bz-ATP, ELISA)
Assay type: cell-based
Conditions: human PBMCs, test compound 10 μM
Measured PBMC 10 μM (% control), listed per entry for reference.
All answers are understood in % control, so give the number only.

Previously resolved entries follow.
{"columns": ["MOLECULE", "UNIT_NAME", "OBS_VALUE"],
 "data": [
  ["CC1c2nnn(-c3ncccc3F)c2C=CN1C(=O)c1cccc(C(F)(F)F)c1Cl (centres unmarked)", "% control", 7.9],
  ["CC1Cc2c(nnn2-c2cc(F)ccn2)CN1C(=O)c1cccc(C(F)(F)F)c1Cl (centres unmarked)", "% control", 7.3],
  ["CC1c2nnn(-c3ccc(F)cc3)c2CCN1C(=O)c1cccc(C(F)(F)F)c1Cl (centres unmarked)", "% control", 4.5],
  ["C[C@@H]1Cc2c(nnn2-c2ccn[nH]2)[C@H](C)N1C(=O)c1cccc(C(F)(F)F)c1Cl [Example 297]", "% control", 2.6],
  ["CC1c2nnn(-c3cnccn3)c2CCN1C(=O)c1cccc(C(F)(F)F)c1F (centres unmarked)", "% control", "−2.1"]
]}

(Q) Give me measured PBMC 10 μM (% control), please, for this molecule: C[C@H]1Cc2c(nnn2-c2ccccc2)CN1C(=O)c1cccc(C(F)(F)F)c1Cl
(A) 4.4

(Q) Give me measured PBMC 10 μM (% control), please, for this molecule: Cn1ccc(-n2nnc3c2CCN(C(=O)c2cccc(C(F)(F)F)c2Cl)C3)n1
(A) 9.2

(Q) Give me measured PBMC 10 μM (% control), please, for this molecule: C[C@H]1c2nnn(-c3ncccn3)c2CCN1C(=O)c1cccc(C(F)(F)F)c1Cl (single isomer, unassigned)
(A) 3.3

(Q) Give me measured PBMC 10 μM (% control), please, for this molecule: Cc1cccc(-n2nnc3c2CCN(C(=O)c2cccc(C(F)(F)F)c2Cl)[C@@H]3C)n1 (single isomer, unassigned)
(A) 58.0

(Q) Give me measured PBMC 10 μM (% control), please, for this molecule: Cc1nc(-n2nnc3c2CCN(C(=O)c2cccc(C(F)(F)F)c2Cl)C3C)ncc1F (centres unmarked) [Example 230]
(A) 2.9

(Q) Give me measured PBMC 10 μM (% control), please, for this molecule: Cc1ccnc(-n2nnc3c2CCN(C(=O)c2ccnc(C(F)(F)F)c2F)[C@@H]3C)c1 (single isomer, unassigned)
(A) −5.9

---

Biological target: UniProt Q99572
Test: P2X7 antagonism in human PBMCs (IL-1β release after LPS + Bz-ATP, ELISA)
Type: cell-based
Settings: human PBMCs, test compound 10 μM
Measured PBMC 10 μM (% control), listed per entry for reference.
All answers are understood in % control, so give the number only.

{"columns": ["MOLECULE", "PBMC 10 μM (% control)"],
 "data": [
  ["Cc1ccnc(-n2nnc3c2CCN(C(=O)c2ccnc(C(F)(F)F)c2Cl)C3C)c1 (centres unmarked)", "−0.7"],
  ["C[C@H]1Cc2c(nnn2-c2ncc(F)cn2)CN1C(=O)c1ccc(F)c(Cl)c1Cl (single isomer, unassigned)", 2.7],
  ["C[C@H]1c2nnn(-c3cncnc3)c2CCN1C(=O)c1cccc(C(F)(F)F)c1Cl", 6.9],
  ["CC1c2nnn(-c3ccc(F)cc3)c2C=CN1C(=O)c1cccc(C(F)(F)F)c1Cl (centres unmarked)", 5.9],
  ["CC1c2nnn(-c3ncco3)c2CCN1C(=O)c1cccc(C(F)(F)F)c1Cl (centres unmarked)", "−1.3"]
]}

(Q) State recorded PBMC 10 μM (% control) with UniProt Q99572, entry Cc1cncc(-n2nnc3c2CCN(C(=O)c2cccc(Cl)c2Cl)C3C)n1 (centres unmarked) , no comment.
(A) −3.7

(Q) State recorded PBMC 10 μM (% control) with UniProt Q99572, entry C[C@H]1Cc2c(nnn2-c2ncc(F)cn2)CN1C(=O)c1cc(C(F)(F)F)ccc1F (single isomer, unassigned) , no comment.
(A) 7.5

(Q) State recorded PBMC 10 μM (% control) with UniProt Q99572, entry Cc1ccnc(-n2nnc3c2CCN(C(=O)c2ccnc(C(F)(F)F)c2Cl)[C@@H]3C)c1 (single isomer, unassigned) , no comment.
(A) −8.2

---

Target: rat P2X7 (Rattus norvegicus (Rat))
Experiment: Ca2+ flux (FLIPR) in 1321N1 cells expressing recombinant rat P2X7;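 further: Calcium-4 dye fluorescence change read 180 s after agonist addition, with cells preincubated 30 min with compound and dye in 96-well plates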
Assay type: cell-based
Conditions: 1321N1 cells, recombinant rat P2X7, 250 μM BzATP
pIC50: −log10 of the molar value.
Please note: condition met applies when pIC50 is 7 or greater, and condition not met applies otherwise.

Answered examples (3):
{"columns": ["COMPOUND", "CLASS"],
 "data": [
  ["O=C(c1cccc(C(F)(F)F)c1Cl)N1CCc2c(nnn2-c2cc(F)ccn2)C1 [Example 131]", "condition met"],
  ["Cc1cc(-n2nnc3c2CCN(C(=O)c2cccc(C(F)(F)F)c2Cl)C3C)ncc1F (stereo not drawn) [Example 381]", "condition not met"],
  ["CC1c2nnn(-c3ncc[nH]3)c2CCN1C(=O)c1cccc(Cl)c1Cl (stereo not drawn) [Example 384]", "condition not met"]
]}

(Q) Item CC1(C)c2ncn(-c3ccccc3)c2CCN1C(=O)c1cccc(C(F)(F)F)c1Cl [Example 53] with pIC50 of 7 or above?
(A) condition not met

(Q) Item CCOC(=O)C1c2ncn(-c3ccccn3)c2CCN1C(=O)c1cccc(C(F)(F)F)c1Cl (stereo not drawn) [Example 24] with pIC50 of 7 or above?
(A) condition met

---

Molecular target: human P2X7 (Homo sapiens (Human), UniProt Q99572)
Assay: P2X7 antagonism in human PBMCs (IL-1β release after LPS + Bz-ATP, ELISA)
Assay type: cell-based
Details: human PBMCs, test compound 10 μM
Please note: label 1 applies when PBMC 10 μM (% control) is 2 % control or greater, and label 0 applies otherwise.

{"columns": ["COMPOUND", "CLASS"],
 "data": [
  ["O=C(c1cccc(C(F)(F)F)c1Cl)N1CCc2c(ncn2-c2ccccn2)C1CF (centres unmarked) [Example 32]", "label 0"]
]}

(Q) Item Cc1cc(-n2nnc3c2CCN(C(=O)c2ccnc(C(F)(F)F)c2F)C3C)ncc1F (centres unmarked) [Example 367] with PBMC 10 μM (% control) of 2 % control or above?
(A) label 0

(Q) Item C[C@@H]1c2nnn(-c3ncc(F)cn3)c2CCN1C(=O)c1cccc(C(F)(F)F)c1Cl [Example 158] with PBMC 10 μM (% control) of 2 % control or above?
(A) label 0

(Q) Item C[C@H]1Cc2c(nnn2-c2ncc(F)cn2)CN1C(=O)c1cc(F)cc(C(F)(F)F)c1 [Example 307] with PBMC 10 μM (% control) of 2 % control or above?
(A) label 1

(Q) Item Cc1nc(-n2nnc3c2CCN(C(=O)c2cccc(C(F)(F)F)c2Cl)C3C)ncc1F (single isomer, unassigned) [Example 306] with PBMC 10 μM (% control) of 2 % control or above?
(A) label 1
